Origin of values: ChEMBL document CHEMBL1255362

- Tested on: Human immunodeficiency virus 1
- assay explanation: Antiviral activity against HIV 1 RIN HIV 1 RIN harboring integrase gene infected in MT-4 cells assessed as inhibition of virus-induced cytopathic effect by MTT assay after 60 passages selected in presence of compound
- Format: functional, organism-based
- assay setup: Human immunodeficiency virus 1, RIN, MT4
outcome measure: EC50 (nM)
Answers are plain numbers, in nM.

Consider the reported EC50 for these compounds:
smiles representation	experimental system	value units	EC50
COc1cccc2c1c(C(=O)/C=C(\O)C(=O)O)cn2Cc1ccc(F)cc1	Human immunodeficiency virus 1	nM	2610
O=C(NCc1ccc(F)cc1)c1nc(N2CCCCS2(=O)=O)c2cccnc2c1O	Human immunodeficiency virus 1	nM	190
Cc1ccnc2c1NC(=O)c1cccnc1N2C1CC1	Human immunodeficiency virus 1	nM	150
CC(C)c1nc(CN(C)C(=O)N[C@H](C(=O)N[C@@H](Cc2ccccc2)C[C@H](O)[C@H](Cc2ccccc2)NC(=O)OCc2cncs2)C(C)C)cs1	Human immunodeficiency virus 1	nM	41
c1cc(CN2CCCNCCNCCCNCC2)ccc1CN1CCCNCCNCCCNCC1	Human immunodeficiency virus 1	nM	8
COc1cc2c(cc1Cc1cccc(Cl)c1F)c(=O)c(C(=O)O)cn2[C@H](CO)C(C)C	Human immunodeficiency virus 1	nM	59
Cc1nnc(C(=O)NC(C)(C)c2nc(C(=O)NCc3ccc(F)cc3)c(O)c(=O)n2C)o1	Human immunodeficiency virus 1	nM	68

What value of EC50 has been recorded for this entry: Cc1cn([C@H]2C[C@H](N=[N+]=[N-])[C@@H](CO)O2)c(=O)[nH]c1=O
22
